# inhibition values compiled below
system-under-test: Collagenase 3 (Homo sapiens) (UniProt P45452)
assay-name: human MMP13 inhibition, fluorescence-interfering compounds – biochemical, possible fluorescent artifacts, delta fluorescence, confirmation (AID 734);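 further: 0% = DMSO only wells and 100% = 8 µM reference MMP13 inhibitor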
test-conditions: MMP13 fTHP FRET cleavage, delta fluorescence 4 h; hits give high values;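 each compound tested at 4 µM nominal in triplicate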
The whole screen tested about 5,100 compounds, of which fewer than 10 were called active. Only a sample is shown.
assay-readout: inhibition (%)

| compound | assay-readout | value-reported |
| --- | --- | --- |
| c1ccc(-n2nnnc2SCc2cn3cccnc3n2)cc1 | inhibition | 9.28 |
| CC(C)OCCCn1c(-c2ccco2)nc2nc3ccccc3nc21 | inhibition | -87.8 |
| O=C1CCCN1CCCNc1ncnc2c1cnn2-c1ccc(Cl)cc1 | inhibition | 3.23 |
| COc1ccc(-c2cc(C(F)(F)F)nc(SCC(=O)NCc3ccco3)n2)cc1OC | inhibition | 8.84 |
| Cc1onc(-c2ccccc2Cl)c1C(=O)Nc1nnc(-c2ccc(F)cc2)s1 | inhibition | 6.05 |
| Cc1nn(-c2ccccc2)c2sc(-c3n[nH]c(=S)o3)cc12 | inhibition | 75.6 |
| O=C(NCc1cccnc1)c1cnn2ccccc12 | inhibition | 3.72 |
| N#Cc1nc(-c2cccs2)oc1N1CCN(c2ccccc2)CC1 | inhibition | 8.02 |
| CN1CC=C2C(C#N)=C(N)C(C#N)(C#N)C(CCc3ccccc3)C2C1 (stereo not drawn) | inhibition | 5.88 |
| O=c1[nH]c(=O)n(Cc2ccccc2)c2nc(-c3ccco3)cc(C(F)(F)F)c12 | inhibition | -103 |
| COc1cccc(-c2nnc(Nc3nc4c(F)cccc4s3)o2)c1 | inhibition | 104 |
| COc1ccc(-c2cc(C(F)(F)F)nc(SCC(=O)Nc3cc(C)on3)n2)cc1OC | inhibition | 11.1 |
| CCOC(=O)c1sc(C)c(C(N)=O)c1NC1=NCCCCC1 | inhibition | 2.74 |
| CC(=O)Nc1nonc1-c1nc2ccccc2n1Cc1nnc(C)o1 | inhibition | 4.74 |
| Cc1nn(-c2ccccc2)c2sc(C(=O)OC3CCOC3=O)cc12 (stereo not drawn) | inhibition | -15.6 |
| Cc1onc(-c2ccccc2)c1C(=O)Nc1ccc2c(C)cc(=O)oc2c1 | inhibition | 2.15 |
| COCCCNC(=O)CSC1=Nc2ccccc2C2=NC(CC(=O)NCc3ccccc3)C(=O)N12 (stereo not drawn) | inhibition | 0.89 |
| CCCSc1n[nH]c(NC(C)=O)n1 | inhibition | 3.35 |
| CCN1CCc2c(sc3c2c(NCc2ccco2)nc2nnnn23)C1 | inhibition | 10.9 |
| Cc1cccc(-n2c(SCCC(=O)O)nnc2-c2cccs2)c1C | inhibition | 6.84 |
| O=C1NC(c2ccco2)Nc2ccccc21 (stereo not drawn) | inhibition | -3.14 |
| CCOc1ccc(C2C(C(=O)OC)=CN(CCOC)C=C2C(=O)OC)cc1 | inhibition | -14.5 |
| CCCCN(CC)CCNC(=O)c1cc2c(=O)n(C)c3ccccc3c2n1C | inhibition | 9.76 |
